Target: UniProtKB P21554
Sequence (P21554 whole entry): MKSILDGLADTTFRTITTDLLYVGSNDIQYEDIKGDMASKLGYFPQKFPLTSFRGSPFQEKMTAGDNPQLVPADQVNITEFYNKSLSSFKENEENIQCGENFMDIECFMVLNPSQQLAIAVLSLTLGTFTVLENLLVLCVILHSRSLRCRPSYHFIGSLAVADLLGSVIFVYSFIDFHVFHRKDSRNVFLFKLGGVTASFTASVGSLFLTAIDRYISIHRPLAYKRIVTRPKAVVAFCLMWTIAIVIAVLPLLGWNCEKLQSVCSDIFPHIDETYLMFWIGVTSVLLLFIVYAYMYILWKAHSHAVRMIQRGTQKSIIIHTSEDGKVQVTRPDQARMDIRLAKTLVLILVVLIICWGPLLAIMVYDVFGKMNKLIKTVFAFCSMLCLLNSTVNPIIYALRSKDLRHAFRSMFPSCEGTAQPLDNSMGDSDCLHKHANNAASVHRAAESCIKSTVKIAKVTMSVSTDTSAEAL
Test: CB1 antagonist cAMP assay (HitHunter cAMP XS+), CP55,940 challenge
Conditions: read-out: CB1 antagonist IC50 (not reached within tested range)
property-measured: IC50

Item under review: `C=C(C)[C@@H]1CCC(C)=C[C@H]1c1c(O)cc(CCCCCCC)cc1O` . Reported IC50?
> 12 µM
